Biological target: T1, Human IL-33 (Axxora/Adipogen AG-40B-0038) (human, UniProt O95760 112-270, limits assumed)
T1 sequence (looked up): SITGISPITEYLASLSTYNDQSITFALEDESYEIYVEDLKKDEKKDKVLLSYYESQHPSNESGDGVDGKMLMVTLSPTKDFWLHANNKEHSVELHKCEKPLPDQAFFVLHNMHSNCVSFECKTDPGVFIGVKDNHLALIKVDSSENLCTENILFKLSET
Assay: cell-based or functional assay
Listed here: items and their measured Huvec IL-6 production, maximum inhibition.

Given IL330396 IgG1 (antibody, V domains shown, IgG1; also called IL3300396) VH: EVQLLESGGGLVQPGGSLRLSCAASGFTFSSYAMSWVRQAPGKGLEWVSASTPWQGSTYYADSVKGRFTISRDNSKNTLYLQMNSLRAEDTAVYYCVRWYWGWIDSWGRGTLVTVSS VL: SYVLTQPPSVSVSPGQTARITCSGDALPKQYAHWYQQKPGQAPALVIYKDTERPSGIPERFSGSSSGTTVTLTISGVQAEDEADYYCMSSDDTGASRVFGGGTKVTVL , state its recorded Huvec IL-6 production, maximum inhibition.
~70%

Given IL330101 IgG (antibody, V domains shown, IgG1 or IgG1-TM; also called mAb IL330101; IL3300101) VH: EVQLLESGGGLVQPGGSLRLSCAASGFTFSSYAMSWVRQAPGKGLEWVSAISGSGGSTYYADSVKGRFTISRDNSKNTLYLQMNSLRAEDTAVYYCVRVVAGYFDSWGRGTLVTVSS VL: SYVLTQPPSVSVSPGQTARITCSGDALPKQYAHWYQQKPGQAPALVIYKDTERPSGIPERFSGSSSGTTVTLTISGVQAEDEADYYCQSADSSGASRVFGGGTKVTVL , state its recorded Huvec IL-6 production, maximum inhibition.
~70%

Given IL330377 IgG1 (antibody, V domains shown) VH: EVQLLESGGGLVQPGGSLRLSCAASGFTFSSYAMSWVRQAPGKGLEWVSASDMLYGSTYYADSVKGRFTISRDNSKNTLYLQMNSLRAEDTAVYYCSQNILGYFDSWGRGTLVTVSS VL: SYVLTQPPSVSVSPGQTARITCSGDALPKQYAHWYQQKPGQAPALVIYKDTERPSGIPERFSGSSSGTTVTLTISGVQAEDEADYYCQSADSTGYHRVFGGGTKVTVL , state its recorded Huvec IL-6 production, maximum inhibition.
~70%
